ASSAY PROTOCOL: soluble on expression in E. coli; label from the status in PepcDB or PDB records
QUANTITY KIND: soluble on expression in E. coli

>>> obs_value("QIKDHLIIVGFGFSGKTISKAAKAAGIPYLIIEMNPEIVQHEKAKGEKIQYGDATFGAVLEHAGIKNARVLVTGIADSSSTGKIVEKAKELNPNICVIVKVHDLQEMKRLNSMGADEIIPEEYETSVEIFVRLLEKYLVPRENIEK")
"not soluble"
>>> obs_value("MSSGSTSTTPRAWLSGSVVTGKCCLLVIRKGQRPGVPFPAPCASGVAVTGRPPCATGGRGRTRPPTGVGEDTKDSCGKGIADETPRRHHGGPATRKAGRATGRSERGHSRGTRPAELMPIPRSPVVVALGAFEISNES")
"not soluble"
>>> obs_value("MKSMSEYLNLLKEAIQNVVDGGWHETKRKGNTGIGKTFEDLLEKEEDNLDAPDFHDIEIKTHETAAKSLLTLFTKSPTNPRGANTMLRNRYGKKDEYGNNILHQTVSGNRKTNSNSYNYDFKIDIDWESQVVRLEVFDKQDIMIDNSVYWSFDSLQNQLDKKLKYIAVISAESKIENEKKYYKYNSANLFTDLTVQSLCRGIENGDIKVDIRIGAYHSGKKKGKTHDHGTAFRINMEKLLEYGEVKVIV")
"soluble"
>>> obs_value("AHHHHHHGSIRRVKREIRVIGFDDGTFPHKKRGEKVILVGIVMKGGSDVLGAVSRWITIDGLDVTEAIIDSILSSRFRGDLRVILLKGITYAGFNVVDVNRVFRETGLPLIVVVRKRPDFEAIENALRKHFEDWEKRMELIKAGGKIYELIPGKVYYQAIGIDAETAAKIIRATSRNSLIPEALRIAHIVASAVMRGESSKE")
"not soluble"
>>> obs_value("MSLQKNGYRIQFTSSRIRDLMYRTTFDPKKMDGDIILNLSLIDKKDLDDVLGIFKMVISSGLSVTPYVKVISEGESIGDMTIEKGKVGIGTVCSITIDGVLLKAGIPVNPKLGGVVQIRNGIPVRFTDVLTYVSTTVDPLEILMSQGITSVSEMLRTGSGKVLANLREAPMVARDEIESNLSDLLDAGFSGILEVGEPNTRVLDVPIERDHLGIVVIGGTNPMAVVQEYGIPIDTSAMSRLISFKEMSRIEDLVEGHHHHHH")
"soluble"
>>> obs_value("FSAPIKAERTAFRRAVCANQYDAVIDAQGLVKSAALVTRLAHGIKHGMDWSTAREPLASLFYNRKHHIAKQQHAVERTRELFAKSLGYDKPQSQGDYAIAKHFLHCQQAVSDPYAVFLHATTRDDKHWPEANWRELIGLVGNTGLRIKLPWGAPHEEARAKRLAEGFDYVDVLPRMSLEEVARVLAGAKFVVSVDTGLSHLTAALDRPNITLYGPTDPGLIGGYGKNQ")
"not soluble"

As a next step, examine the sequence that follows.
For MKAVAINGYGTVGKRVADAIAQQDDMKVIGVSKTRPDFEARMALKKGYDLYVAIPERVKLFEKAGIEVAGTVDDMLDEADIVIDCTPEGIGAKNLKMYKEKGIKAIFQGGEKHEDIGLSFNSLSNYEESYGKDYTRVVSCNTTGLCRTLKPLHDSFGIKKVRAVIVRRGADPAQVSKGPINAIIPNPPKLPSHHGPDVKTVLDINIDTMAVIVPTTLMHQHNVMVEVEETPTVDDIIDVFEDTPRVILISAEDGLTSTAEIMEYAKELGRSRNDLFEIPVWRESITVVDNEIYYMQAVHQESDIVPENVDAVRAILEMEEDKYKSINKTNKAMNILQ , what is its reported soluble on expression in E. coli?
soluble
